Measured Metric: melting point

In plain terms, CCn1ccc(OC2c3cc(C#N)ccc3OC(C)(C)C2(C)O)cc1=O (stereo not given) has a documented melting point of 166 to 168 °C

In plain terms, `Cc1cc(Oc2ncc(C(F)(F)F)cc2Cl)nn1C(=O)NCCCl` has a documented melting point of 98 to 100 °C

In plain terms, `CCn1ncc2c(NCC3CCCCC3)c3cc(OC)ccc3nc21` has a documented melting point of 235 to 237 °C

In plain terms, `CNC(=O)CNC(=O)c1cncc(F)c1` has a documented melting point of 201 to 202 °C

In plain terms, `CCOC(=O)C(OCC)(OCC)C(=O)c1cccc2snnc12` has a documented melting point of 123 to 125 °C

In plain terms, `COc1cccc(NC(=O)C(F)(F)F)c1` has a documented melting point of 115 °C

In plain terms, `CNc1cc(Oc2cccc(C(F)(F)F)c2)nc(C(=O)O)c1` has a documented melting point of 66 to 68 °C

In plain terms, `Cn1ncc(C(=O)N2CCOCC2)c1C(=O)Nc1ccn2nc(N3CCCC3)nc2c1` has a documented melting point of 194 to 197 °C

In plain terms, `Nc1cc(Cl)c([N+](=O)[O-])cc1CCO` has a documented melting point of 176 °C

In plain terms, `CCCc1c(C)c2ccc(O)cc2oc1=O` has a documented melting point of 160 to 173 °C

In plain terms, OCC1OC(n2cnc3cncnc32)CC1F (stereo not given) has a documented melting point of 89 °C

In plain terms, `Clc1cccc2c1Sc1ccccc1N2C1=CCCN1C1=NCCC1` has a documented melting point of 195 to 197 °C

In plain terms, `Oc1cc2c(cc1OCCCOc1ccccc1)OCC2` has a documented melting point of 106 to 107 °C

In plain terms, COC(=O)C1=C(C)NC(C(=N)N)=C(C(=O)OC(C)C)C1c1ccccc1[N+](=O)[O-] (stereo not given) has a documented melting point of 203 °C

In plain terms, `CCCCCNS(=O)(=O)NC(=O)/C=C/c1c(C)nn(C)c1-n1ccc2cc(Cl)ccc21` has a documented melting point of 184 °C

====

Hi there, I'd appreciate the recorded melting point for every entry that follows.

In plain terms, `CCOC(=O)COc1ccc(N)cc1Cl` has a documented melting point of 59 to 62 °C

In plain terms, `CC(C)n1c(=O)nc(-c2ccc3c(c2)OCO3)c2cc3c(cc21)OCCO3` has a documented melting point of 229 to 231 °C

In plain terms, `COc1cc2c(c(OC)c1OC)C(CN1CCC(c3noc4cc(F)ccc34)CC1)=C2` has a documented melting point of 141 to 143 °C

In plain terms, `CCc1c(C)[nH]c(=O)c(I)c1Oc1cc(C)cc(C)c1` has a documented melting point of 240 °C

====

Hi there, I'd appreciate the recorded melting point for every entry that follows.

In plain terms, `C[C@@H](CCCCC(=O)O)NC(=O)OCc1ccccc1` has a documented melting point of 82 to 83 °C

In plain terms, `Oc1ccc(Cl)nc1Cl` has a documented melting point of 136 to 138 °C

In plain terms, `CN1C(=O)N(C)C(c2c(C(C)(C)C)cc(O)cc2C(C)(C)C)N(C)C1=O` has a documented melting point of 194 to 196 °C

In plain terms, `O=C1OC(=O)c2cc3c(cc21)CCOC3` has a documented melting point of 156 to 158 °C

In plain terms, `CC(C)c1nc2[nH]c(=O)[nH]c(=O)c2c(-c2ccc(F)cc2)c1/C=C/C=O` has a documented melting point of 255 °C

In plain terms, `CC(C)(C)c1csc(-c2cc3cc(Cc4nc(C(=O)O)cs4)ccc3o2)n1` has a documented melting point of 227 to 230 °C

In plain terms, `COc1ccc(/C=C(/C#N)c2cc(OC)c(OC)c(OC)c2)cc1N` has a documented melting point of 144 to 145 °C

In plain terms, `CC(C)c1nn(-c2ccccc2)c(-c2ccc(F)cc2)c1CO` has a documented melting point of 138 to 140 °C

In plain terms, `Cc1nc(Br)cnc1N` has a documented melting point of 51 to 52 °C

In plain terms, `CN=C(NC#N)N1CC1` has a documented melting point of 130 to 132 °C

In plain terms, `CC(=O)/C(=C/I)c1ccccc1` has a documented melting point of 97 °C

In plain terms, `COC(=O)c1cc2cc(OC)c(OC)cc2c(-c2ccnc(Cl)c2)n1` has a documented melting point of 246 to 247 °C

In plain terms, `CCOC(=O)Cc1csc(-c2cccc(Br)c2)n1` has a documented melting point of 65 to 70 °C

In plain terms, `CON=C(c1ccccc1COc1ccc(Cl)cc1)c1ncnn1C` has a documented melting point of 113 to 114 °C

In plain terms, `CCSCCCNc1c(S(=O)(=O)C(F)(F)F)c(C#N)nn1-c1c(Cl)cc(C(F)(F)F)cc1Cl` has a documented melting point of 80 °C

In plain terms, CC(C)c1cccc(C(C)C)c1NC(=O)CNC(C)c1ccccn1 (stereo unspecified) has a documented melting point of 99 to 101 °C

In plain terms, `COc1ccc(C(=O)Nc2ccc(C(=O)c3ccccc3)cc2)cc1` has a documented melting point of 171 to 174 °C

In plain terms, `OCCNc1nc(Cl)nc2cccc(Br)c12` has a documented melting point of 165 to 167 °C

In plain terms, `c1ccc2c(c1)cc(Cn1ccnc1)c1ccsc12` has a documented melting point of 109 to 111 °C

In plain terms, Clc1ccc(CSC(Cn2ccnc2)C23CC4CC(CC(C4)C2)C3)cc1 (stereo unspecified) has a documented melting point of 157 to 160 °C

In plain terms, `O=S(=O)(O)c1cccc(NCc2cccc(C(F)(F)F)c2)c1` has a documented melting point of > 275 °C

In plain terms, `Cn1nc(-c2cccc(-n3ncc4cc(C(C)(C)C)cc(F)c4c3=O)c2CO)cc(Nc2cnc(CNC3CCC3)cn2)c1=O` has a documented melting point of 163 to 167 °C

In plain terms, `Nc1nc(N)c2cc(Cc3ccccc3Cl)ccc2n1` has a documented melting point of 220 to 222 °C

In plain terms, C=CCOc1ccc(OC(C(=O)C(C)(C)C)n2cncn2)cc1 (stereo unspecified) has a documented melting point of 66 °C

In plain terms, `N#Cc1ccc(N(c2ccc(N)cc2)n2ccnc2)cc1` has a documented melting point of 147 °C

In plain terms, `C[Si](C)(C)c1ccc2c(c1)C([Si](C)(C)C)([Si](C)(C)C)c1cc([Si](C)(C)C)ccc1-2` has a documented melting point of 141 to 142 °C

In plain terms, COc1cc(C)c(C(O)c2c(Cl)c(Cl)nc(Cl)c2C(F)(F)F)c(OC)c1OC (stereo unspecified) has a documented melting point of 131 to 135 °C

In plain terms, `OCc1cnoc1-c1ccc(F)c(F)c1` has a documented melting point of 72 to 73 °C

In plain terms, `CC(C)CCC(=O)N[C@@H](CC(C)C)C(=O)N[C@@H](C(C)C)[C@@H](O)c1c(-c2ccccc2)c1=O` has a documented melting point of 148 to 151 °C

In plain terms, CN1CC(CO)C=C2c3cccc4c3c(cn4C)CC21 (stereo unspecified) has a documented melting point of 216 to 217 °C

In plain terms, O=[N+]([O-])c1ccc(C2OCc3ccc(CCl)cc3CO2)cc1 (stereo unspecified) has a documented melting point of 138 to 140 °C

====

Hi there, I'd appreciate the recorded melting point for every entry that follows.

In plain terms, `CC(C)(C)C1CC(CCC(=O)O)(CCC(=O)O)C(=O)C(CCC(=O)O)(CCC(=O)O)C1` has a documented melting point of 209 to 212 °C

In plain terms, `COCCOCCOCCC1(CCOCCOCCOC)c2cc(C#Cc3ccc(C=O)s3)ccc2-c2ccc(C#Cc3ccc(C=O)s3)cc21` has a documented melting point of 84 °C

In plain terms, `FC(F)(F)c1ccc(Oc2ccc(OCc3ccccc3)cc2)c(Cl)c1` has a documented melting point of 63 to 66 °C

In plain terms, COc1ccccc1OCC1SCCN1C(=O)CS (stereo not drawn) has a documented melting point of 86 to 87 °C

In plain terms, `COC(=O)c1ccc(C(=O)Nc2ccc(-n3nc(C(F)(F)F)cc3C(F)(F)F)cc2)cc1` has a documented melting point of 195 to 196 °C

In plain terms, `CC(=O)Oc1ccc(-c2ccc3cc(OC(C)=O)ccc3c2)cc1` has a documented melting point of 178 to 180 °C

In plain terms, `CS(=O)(=O)c1ccc(C2=C(c3ccc(Cl)cc3)C(=O)N(C3CCCCC3)C2)cc1` has a documented melting point of 142 to 144 °C

In plain terms, `CC(C)[C@H](C[C@H](O)[C@H](C)NC(=O)OC(C)(C)C)C(=O)NCCN` has a documented melting point of 55 to 62 °C

In plain terms, `CC(C)(O)c1ccc(CC(=O)Nc2cccnc2Oc2cccc(C#N)c2)cc1` has a documented melting point of 97 to 99 °C

In plain terms, `CS(=O)(=O)Nc1cc2occ(C=Cc3ccccc3)c(=O)c2cc1Oc1ccccc1` has a documented melting point of 174 to 175 °C

In plain terms, `Cc1cc2nc(O)nc(O)c2s1` has a documented melting point of > 300 °C

In plain terms, `CCn1c(=O)c2[nH]c(/C=C/c3ccc(F)cc3)nc2n(CC)c1=O` has a documented melting point of > 270 °C

In plain terms, `COc1ccc(-c2cc(C(N)=O)c(=O)n(CC=Cc3ccccc3)n2)cc1` has a documented melting point of 184 to 186 °C

In plain terms, `CC(C)(C)OC(=O)N[C@H]1COc2ccccc2N(CC(=O)OCc2ccccc2)C1=O` has a documented melting point of 122 to 124 °C

In plain terms, `COC(=O)CCCc1nc(-c2ccc(F)cc2)c(-c2ccc(S(C)(=O)=O)cc2)o1` has a documented melting point of 89 to 91 °C

In plain terms, `O=C(c1ccc(C2=CCCc3ccccc32)cc1Cl)N1Cc2cccn2Cc2ccccc21` has a documented melting point of 174 to 176 °C

In plain terms, `CC(C)CCn1c(=O)c(=NNc2ccccc2)c(=O)n(-c2ccccc2F)c2ccccc21` has a documented melting point of 104 to 105 °C

In plain terms, `CC(C)Oc1cc(CCCOc2ncccc2CC(=O)O)n(Cc2ccc(Cl)cc2Cl)n1` has a documented melting point of 88 to 90 °C

In plain terms, CCOC(=O)C1=C(C)NC(COC(C)=O)=C(C(=O)OCC)C1c1ccccc1Cl (stereo not drawn) has a documented melting point of 98 °C

In plain terms, `COC(=O)c1nc(CN2CCOCC2)n(-c2ccc(Cl)cc2C(=O)c2ccccc2)n1` has a documented melting point of 165 to 170 °C

In plain terms, CCNC(=O)CC1CN=C(c2cc3cc(Oc4ccc(COC)nc4)cc(OC)c3[nH]2)S1 (stereo not drawn) has a documented melting point of 130 to 132 °C

In plain terms, `CNC(=O)N1CC(Oc2cccc(C(F)(F)F)c2)C1` has a documented melting point of 145 to 147 °C

In plain terms, `COc1ccc(C(=O)O)c2cccc(S(=O)(=O)N(C)C)c12` has a documented melting point of 220 to 221 °C

In plain terms, `CCOC(CC)=NS(=O)(=O)c1nc(-c2ccccc2)ns1` has a documented melting point of 98 to 100 °C

In plain terms, COC(=O)C=C(C)c1ccc(CCNCC(O)c2ccccc2)cc1 (stereo not drawn) has a documented melting point of 120 to 125 °C

In plain terms, CN1CCN(C(=O)CCOC2c3ccccc3C(=O)N2c2ccc3ccc(Cl)nc3n2)CC1 (stereo not drawn) has a documented melting point of 150 °C

In plain terms, Cc1nc(-c2ccc(Cl)cc2)c(CC(Cl)C(=O)O)o1 (stereo not drawn) has a documented melting point of 208 to 209 °C

In plain terms, CC12CCC3C(CCC4=CC(=CF)CCC43CS)C1CCC2=O (stereo not drawn) has a documented melting point of 118 to 120 °C
